Data provenance: patent US11083725B2

Test system: NHBE cells
Assay notes: Biolog metabolic array: substrate use by NHBE cells with or without CA09 infection
Type: cell-based, human
Condition parameters: Control (uninfected) NHBE cells, Biolog PMM2, 5 hr
# Substrate use, 590 nm absorbance normalized to zero hour, 5 hr per entry
Lab note: jot the number down without any unit.

The examples below pair each entry with its known result.
Compound	Test result
OC[C@H]1O[C@@](CO)(O[C@H]2O[C@H](CO)[C@@H](O)[C@H](O)[C@H]2O)[C@@H](O[C@H]2O[C@H](CO)[C@@H](O)[C@H](O)[C@H]2O)[C@@H]1O [D-Melezitose]	2.80
NCCCC(=O)O [g-Amino Butyric Acid]	1.52

Alright, here's another compound for you.
Specify Substrate use, 590 nm absorbance normalized to zero hour, 5 hr for OC[C@H]1O[C@H](OC[C@H]2O[C@H](OC[C@H]3O[C@H](O[C@]4(CO)O[C@H](CO)[C@@H](O)[C@@H]4O)[C@H](O)[C@@H](O)[C@@H]3O)[C@H](O)[C@@H](O)[C@H]2O)[C@H](O)[C@@H](O)[C@H]1O [Stachyose] , system NHBE cells.
3.55

====

Test system: NHBE cells
Assay notes: Biolog metabolic array: substrate use by NHBE cells with or without CA09 infection
Format: cell-based, human
Condition parameters: Control (uninfected) NHBE cells, 8 hr
We use 2 as the dividing line for 590 nm absorbance normalized to zero hour (substrate use), 8 hr: on or above the line is 1, below is -1.

Could you please find out whether COC(=O)C(C)=O [Methyl Pyruvate] has 590 nm absorbance normalized to zero hour (substrate use), 8 hr that meets 2 or exceeds it?
-1

Could you please find out whether OCc1ccccc1O[C@@H]1O[C@H](CO)[C@@H](O)[C@H](O)[C@H]1O has 590 nm absorbance normalized to zero hour (substrate use), 8 hr that meets 2 or exceeds it?
-1

Could you please find out whether OC[C@H]1O[C@H](OCC2O[C@@H](O)[C@H](O)[C@@H](O)[C@@H]2O)[C@H](O)[C@@H](O)[C@H]1O (stereo partly shown) has 590 nm absorbance normalized to zero hour (substrate use), 8 hr that meets 2 or exceeds it?
-1

Could you please find out whether NC(=O)CCC(=O)O has 590 nm absorbance normalized to zero hour (substrate use), 8 hr that meets 2 or exceeds it?
-1

Could you please find out whether O=P(O)(O)OC[C@H](O)CO (racemic) [D,L-a-Glycerol Phosphate] has 590 nm absorbance normalized to zero hour (substrate use), 8 hr that meets 2 or exceeds it?
-1

====

Test system: NHBE cells
Assay notes: Biolog metabolic array: substrate use by NHBE cells with or without CA09 infection
Type: cell-based, human
Condition parameters: Virus: CA09-infected NHBE cells, MOI 1; Biolog PMM2; 3 hr
# 590 nm absorbance normalized to zero hour (substrate use), 3 hr per entry
Lab note: jot the number down without any unit.

The examples below pair each entry with its known result.
> print(dat)
                                   compound  test.result
1  OC[C@H]1O[C@H](OC[C@H]2O[C@H](O[C@]3(CO)O[C@H](CO)[C@@H](O)[C@@H]3O)[C@H](O)[C@@H](O)[C@@H]2O)[C@H](O)[C@@H](O)[C@H]1O         0.55
2   O=C(O)C(O)C(O)C(=O)O (stereo not shown)         1.90

Annotate the compound OC[C@H]1O[C@@](CO)(O[C@H]2O[C@H](CO)[C@@H](O)[C@H](O)[C@H]2O)[C@@H](O[C@H]2O[C@H](CO)[C@@H](O)[C@H](O)[C@H]2O)[C@@H]1O with its measured 590 nm absorbance normalized to zero hour (substrate use), 3 hr.
2.73

Annotate the compound CO[C@H]1O[C@H](CO)[C@@H](O)[C@H](O)[C@@H]1O [a-Methyl-D-Mannoside] with its measured 590 nm absorbance normalized to zero hour (substrate use), 3 hr.
0.64

Annotate the compound CO[C@@H]1OC[C@@H](O)[C@H](O)[C@H]1O [b-Methyl-D-Xyloside] with its measured 590 nm absorbance normalized to zero hour (substrate use), 3 hr.
2.79

Annotate the compound OCC1OC(OC2C(CO)OC(OC3C(CO)OC(O)C(O)C3O)C(O)C2O)C(O)C(O)C1O (stereo not shown) with its measured 590 nm absorbance normalized to zero hour (substrate use), 3 hr.
3.70

Annotate the compound CC(O)C(C)O (stereo not shown) with its measured 590 nm absorbance normalized to zero hour (substrate use), 3 hr.
0.31

====

Test system: NHBE cells
Assay notes: Biolog metabolic array: substrate use by NHBE cells with or without CA09 infection
Assay type: cell-based, human
Condition parameters: Virus: CA09-infected NHBE cells, MOI 1; Biolog PMM2; 6 hr
# 590 nm absorbance normalized to zero hour (substrate use), 6 hr per entry
Lab note: jot the number down without any unit.

The examples below pair each entry with its known result.
> print(dat)
                                   molecule  test.result
1           O=C[C@H](O)[C@@H](O)[C@@H](O)CO         3.66
2  O=c1[nH]cnc2c1ncn2[C@@H]1O[C@H](CO)[C@@H](O)[C@H]1O         3.30
3  C[C@@H](O)CC(=O)O [b-Hydroxy-Butyric Acid]         3.34
4  CO[C@H]1O[C@H](CO)[C@H](O)[C@H](O)[C@H]1O [a-Methyl-D-Galactoside]         1.51

Alright, here's another molecule for you.
Annotate the molecule C[C@@H]1OC(O)[C@@H](O)[C@H](O)[C@@H]1O (some centres unmarked) with its measured 590 nm absorbance normalized to zero hour (substrate use), 6 hr.
0.45

====

Tested on: NHBE cells
Assay notes: Biolog metabolic array: substrate use by NHBE cells with or without CA09 infection
Format: cell-based, human
Condition parameters: Control (uninfected) NHBE cells, 8 hr
We use 3 as the dividing line for 590 nm absorbance normalized to zero hour (substrate use), 8 hr: on or above the line is Satisfied, below is Not satisfied.

> print(dat)
                                        mol  assayed.target     class.name
1                             CC(=O)CC(=O)O      NHBE cells  Not satisfied
2                              CC(=O)C(=O)O      NHBE cells  Not satisfied
3  O[C@H]1[C@H](O)[C@@H](O)[C@H](O)[C@@H](O)[C@H]1O      NHBE cells      Satisfied
4           OC[C@@H](O)[C@@H](O)[C@@H](O)CO      NHBE cells  Not satisfied
5       O=C(CO)[C@@H](O)[C@H](O)[C@@H](O)CO      NHBE cells  Not satisfied

With those in mind, consider the next molecule.
Could you please find out whether OCC(O)CO has 590 nm absorbance normalized to zero hour (substrate use), 8 hr that meets 3 or exceeds it?
Not satisfied

====

Tested on: NHBE cells
Assay notes: Biolog metabolic array: substrate use by NHBE cells with or without CA09 infection
Type: cell-based, human
Condition parameters: Virus (CA09-infected, MOI 1) NHBE cells, 8 hr
Property measured: 590 nm absorbance normalized to zero hour (substrate use), 8 hr
Lab note: jot the number down without any unit.

The examples below pair each entry with its known result.
> print(dat)
                                   molecule  test.result
1  CO[C@H]1O[C@H](CO)[C@@H](O)[C@H](O)[C@H]1O [a-Methyl-D-Glucoside]         2.77
2  Cc1cn([C@H]2C[C@H](O)[C@@H](CO)O2)c(=O)[nH]c1=O         2.26
3  O=C[C@H](O)[C@@H](O)[C@H](O)[C@H](O)C(=O)O         3.24

Annotate the molecule COC(=O)[C@@H](C)O [Methyl D-Lactate] with its measured 590 nm absorbance normalized to zero hour (substrate use), 8 hr.
3.20

Annotate the molecule OC[C@@]12OC[C@@H](O1)[C@@H](O)[C@@H](O)[C@@H]2O with its measured 590 nm absorbance normalized to zero hour (substrate use), 8 hr.
1.49

Annotate the molecule OC[C@@H](O)[C@@H](O)[C@H](O)[C@@H](O)CO with its measured 590 nm absorbance normalized to zero hour (substrate use), 8 hr.
4.94

Annotate the molecule O=c1[nH]cnc2c1ncn2[C@@H]1O[C@H](CO)[C@@H](O)[C@H]1O with its measured 590 nm absorbance normalized to zero hour (substrate use), 8 hr.
3.88

Annotate the molecule CC(=O)N[C@H]1[C@H]([C@H](O)[C@H](O)CO)OC(O)(C(=O)O)C[C@@H]1O (stereo partly drawn) with its measured 590 nm absorbance normalized to zero hour (substrate use), 8 hr.
1.60

Annotate the molecule O=C(O)[C@H](O)[C@@H](O)[C@H](O)[C@H](O)CO[C@H]1O[C@H](CO)[C@H](O)[C@H](O)[C@H]1O with its measured 590 nm absorbance normalized to zero hour (substrate use), 8 hr.
2.89
